Target: T1, Recombinant hIL-36R protein (Acrobio, Cat #IL2-H52H6) (human, UniProt Q9HB29 20-335)
T1 construct: Bought soluble protein; also called recombinant human IL-36R protein
T1 sequence: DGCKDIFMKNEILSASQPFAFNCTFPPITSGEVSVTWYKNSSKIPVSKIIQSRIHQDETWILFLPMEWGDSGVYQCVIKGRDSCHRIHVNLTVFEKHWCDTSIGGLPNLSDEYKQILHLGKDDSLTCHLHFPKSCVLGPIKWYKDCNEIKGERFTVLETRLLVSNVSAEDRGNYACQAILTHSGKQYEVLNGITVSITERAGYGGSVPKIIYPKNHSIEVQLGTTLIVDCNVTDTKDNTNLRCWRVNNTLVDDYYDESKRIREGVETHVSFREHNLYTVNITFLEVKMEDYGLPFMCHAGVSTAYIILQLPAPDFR
Test: BLI (Gator), antibody on Protein A sensor, hIL-36R analyte
measure.name: pKd
The meaning of pKd here: minus log10 of the concentration in molar units.

# binder 9H11 (antibody, V domains shown, Mouse variable regions, recombinantly expressed) VH: QVQLQQSGPELVKPGASVKISCKASGYAFSHSWMNWVKQRPGKGLEWIGWIHLGDGDTYYNGKFKGKATLTADKSSSTAYMQLSSLTSEDSAVYFCARSDGNYVPYAMDYWGQGTSVTVSS VL: DIVITQTTSSLSASLGDRVTISCRASQDISNYLSWYQQKPDGTVKLLIYYTSRLHSGVPSRFSGSGSGTDYSLTISSLEQEDIATYFCQQDSEHPWTFGGGTELDVR ; its pKd = 11.20
